Target: N-type calcium channel (NTCC) (Homo sapiens, UniProt Q00975)
Construct: host or cells: IMR32 cells differentiated with dibutyryl cAMP and bromodeoxyuridine
Sequence (Q00975 whole entry): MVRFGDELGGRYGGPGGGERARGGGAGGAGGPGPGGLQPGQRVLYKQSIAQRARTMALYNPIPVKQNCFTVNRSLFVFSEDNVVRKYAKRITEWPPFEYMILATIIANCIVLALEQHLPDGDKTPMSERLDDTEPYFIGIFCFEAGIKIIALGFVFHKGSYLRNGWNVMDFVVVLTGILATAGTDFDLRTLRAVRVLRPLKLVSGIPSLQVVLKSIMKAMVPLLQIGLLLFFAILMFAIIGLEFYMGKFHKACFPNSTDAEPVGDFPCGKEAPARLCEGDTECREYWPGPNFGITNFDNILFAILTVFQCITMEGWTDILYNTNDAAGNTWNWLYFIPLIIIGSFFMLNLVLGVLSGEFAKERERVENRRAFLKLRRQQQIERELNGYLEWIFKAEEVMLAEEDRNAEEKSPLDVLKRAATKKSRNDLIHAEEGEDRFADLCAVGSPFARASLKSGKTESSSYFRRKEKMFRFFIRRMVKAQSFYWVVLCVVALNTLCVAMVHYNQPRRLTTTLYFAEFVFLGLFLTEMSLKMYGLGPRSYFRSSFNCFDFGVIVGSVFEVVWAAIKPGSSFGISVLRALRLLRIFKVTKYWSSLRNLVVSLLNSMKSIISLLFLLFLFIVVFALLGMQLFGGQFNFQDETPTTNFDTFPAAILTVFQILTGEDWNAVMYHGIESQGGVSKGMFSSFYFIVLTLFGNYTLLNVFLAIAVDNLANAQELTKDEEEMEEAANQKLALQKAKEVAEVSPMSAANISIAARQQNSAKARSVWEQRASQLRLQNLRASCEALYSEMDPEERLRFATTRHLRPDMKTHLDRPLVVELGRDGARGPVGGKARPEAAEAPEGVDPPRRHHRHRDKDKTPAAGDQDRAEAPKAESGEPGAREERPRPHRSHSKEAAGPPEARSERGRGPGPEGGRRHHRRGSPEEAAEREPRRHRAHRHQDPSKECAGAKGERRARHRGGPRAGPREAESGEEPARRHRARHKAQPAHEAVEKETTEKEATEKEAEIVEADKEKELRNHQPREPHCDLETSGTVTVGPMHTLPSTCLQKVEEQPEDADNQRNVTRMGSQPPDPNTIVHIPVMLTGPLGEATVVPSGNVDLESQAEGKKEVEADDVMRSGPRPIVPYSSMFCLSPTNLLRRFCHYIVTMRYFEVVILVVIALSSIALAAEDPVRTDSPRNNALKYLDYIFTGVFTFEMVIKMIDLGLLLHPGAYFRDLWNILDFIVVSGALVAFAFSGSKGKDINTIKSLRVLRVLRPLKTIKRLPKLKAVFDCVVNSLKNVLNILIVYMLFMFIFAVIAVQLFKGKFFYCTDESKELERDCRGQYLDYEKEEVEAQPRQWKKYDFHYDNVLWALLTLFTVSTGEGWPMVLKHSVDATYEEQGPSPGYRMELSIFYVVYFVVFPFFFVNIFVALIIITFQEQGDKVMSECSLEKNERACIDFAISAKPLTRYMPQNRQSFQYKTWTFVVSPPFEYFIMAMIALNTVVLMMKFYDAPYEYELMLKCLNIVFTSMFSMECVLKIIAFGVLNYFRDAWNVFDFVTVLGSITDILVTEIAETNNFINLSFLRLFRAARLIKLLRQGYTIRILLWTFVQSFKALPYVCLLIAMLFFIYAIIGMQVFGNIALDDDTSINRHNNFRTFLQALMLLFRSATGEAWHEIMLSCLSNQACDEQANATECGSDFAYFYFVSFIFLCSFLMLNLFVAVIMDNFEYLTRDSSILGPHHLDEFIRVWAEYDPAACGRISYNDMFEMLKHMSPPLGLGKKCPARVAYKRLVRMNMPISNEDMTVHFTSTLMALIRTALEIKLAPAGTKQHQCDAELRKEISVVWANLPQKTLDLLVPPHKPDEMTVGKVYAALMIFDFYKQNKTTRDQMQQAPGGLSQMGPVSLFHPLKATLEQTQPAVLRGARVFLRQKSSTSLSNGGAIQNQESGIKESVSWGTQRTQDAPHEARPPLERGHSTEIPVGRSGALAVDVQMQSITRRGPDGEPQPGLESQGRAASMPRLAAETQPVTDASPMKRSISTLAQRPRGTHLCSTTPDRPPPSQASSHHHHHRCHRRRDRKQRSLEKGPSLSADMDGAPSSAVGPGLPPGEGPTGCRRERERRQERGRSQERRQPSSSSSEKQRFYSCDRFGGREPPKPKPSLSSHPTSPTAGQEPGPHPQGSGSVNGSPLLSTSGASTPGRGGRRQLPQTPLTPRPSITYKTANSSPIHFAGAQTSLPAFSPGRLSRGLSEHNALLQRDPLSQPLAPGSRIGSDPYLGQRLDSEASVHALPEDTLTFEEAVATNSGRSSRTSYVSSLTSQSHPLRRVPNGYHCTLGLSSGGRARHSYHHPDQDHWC
Experiment: FLIPR calcium mobilization assay for N-type calcium channel (differentiated IMR32 cells)
Format: cell-based
Settings: about 1.0 μM or less; calcium mobilization and/or electrophysiological assay
READOUT_KIND: IC50

See these solved cases before continuing.
                                   compound                             tested_target     val
0  N#Cc1ccc(S(=O)(=O)N2CCC(=NOC(c3ccc(F)cc3)c3ccc(F)cc3)CC2)cc1  N-type calcium channel (NTCC) (Homo sapiens, UniProt Q00975)  ≤ 1 µM
1  O=S(=O)(c1ccc(OC(F)(F)F)cc1)N1CCC(=NOCc2cccc(C(F)(F)F)c2)CC1  N-type calcium channel (NTCC) (Homo sapiens, UniProt Q00975)  ≤ 1 µM
2  N#Cc1cccc(C(ON=C2CCN(S(=O)(=O)c3ccc(OC(F)(F)F)cc3)CC2)C2CC2)c1 (stereo not shown)  N-type calcium channel (NTCC) (Homo sapiens, UniProt Q00975)  ≤ 1 µM
3  CN1CCOc2cc(S(=O)(=O)N3CCC(=NOC(c4ccc(F)cc4)c4ccc(F)cc4)CC3)ccc21  N-type calcium channel (NTCC) (Homo sapiens, UniProt Q00975)  ≤ 1 µM
4  O=S(=O)(c1ccc(OC(F)(F)F)cc1)N1CCC(=NOCc2ccccc2-c2ccccc2)CC1  N-type calcium channel (NTCC) (Homo sapiens, UniProt Q00975)  ≤ 1 µM
5  O=S(=O)(c1cccc(C(F)(F)F)c1)N1CCC(=NOCc2cccc(C(F)(F)F)c2)CC1  N-type calcium channel (NTCC) (Homo sapiens, UniProt Q00975)  ≤ 1 µM
6  COc1ccc(S(=O)(=O)N2CCC(=NOC(c3ccc(F)cc3)c3ccc(F)cc3)CC2)cc1OC  N-type calcium channel (NTCC) (Homo sapiens, UniProt Q00975)  ≤ 1 µM
7  COc1ccccc1S(=O)(=O)N1CCC(=NOC(c2ccc(F)cc2)c2ccc(F)cc2)CC1  N-type calcium channel (NTCC) (Homo sapiens, UniProt Q00975)  ≤ 1 µM

# O=S(=O)(c1ccccc1)N1CCC(=NOCc2cccc(C(F)(F)F)c2)CC1 with N-type calcium channel (NTCC) (Homo sapiens, UniProt Q00975): IC50 is ≤ 1 µM

Entry CCCCc1ccc(S(=O)(=O)N2CCC(=NOCc3cccc(Cl)n3)CC2)cc1 under N-type calcium channel (NTCC) (Homo sapiens, UniProt Q00975) had IC50 of ≤ 1 µM

// returns IC50 for N#Cc1ccccc1CON=C1CCN(S(=O)(=O)c2ccc(OC(F)(F)F)cc2)CC1 with N-type calcium channel (NTCC) (Homo sapiens, UniProt Q00975); value = ≤ 1 µM

The measured IC50 that O=S(=O)(c1cccc(C(F)(F)F)c1)N1CCC(=NOC(c2ccc(F)cc2)c2ccc(F)cc2)CC1 showed for N-type calcium channel (NTCC) (Homo sapiens, UniProt Q00975) is ≤ 1 µM

Lab note: compound N#Cc1cc(CON=C2CCN(C(=O)CCC(c3ccc(F)cc3)c3ccc(F)cc3)CC2)ccc1F tested on N-type calcium channel (NTCC) (Homo sapiens, UniProt Q00975); recorded IC50 was ≤ 1 µM
